Consider the following compounds and their measured MIC readings.
System: Aspergillus flavus
EXPERIMENT NOTES: Antifungal activity against Aspergillus flavus
Assay type: functional

{"columns": ["SMILES REPRESENTATION", "MIC"],
 "data": [
  ["C[n+]1nn(CCCCCCn2n[n+](C)c3c2C(=O)c2ccccc2C3=O)c2c1C(=O)c1ccccc1C2=O.O=S(=O)([O-])C(F)(F)F.O=S(=O)([O-])C(F)(F)F", "> 250 µg/mL"],
  ["CCCC[n+]1nn(CCCCCCn2n[n+](CCCC)c3c2C(=O)c2ccccc2C3=O)c2c1C(=O)c1ccccc1C2=O.O=S(=O)([O-])C(F)(F)F.O=S(=O)([O-])C(F)(F)F", "> 250 µg/mL"],
  ["CCCCCC[n+]1nn(CCCCCCn2n[n+](CCCCCC)c3c2C(=O)c2ccccc2C3=O)c2c1C(=O)c1ccccc1C2=O.O=S(=O)([O-])C(F)(F)F.O=S(=O)([O-])C(F)(F)F", "> 250 µg/mL"],
  ["CCCCCCCCCC[n+]1nn(CCCCCCn2n[n+](CCCCCCCCCC)c3c2C(=O)c2ccccc2C3=O)c2c1C(=O)c1ccccc1C2=O.O=S(=O)([O-])C(F)(F)F.O=S(=O)([O-])C(F)(F)F", "7.81 µg/mL"],
  ["CCCCCCCC[n+]1nn(CCCCCCn2n[n+](CCCCCCCC)c3c2C(=O)c2ccccc2C3=O)c2c1C(=O)c1ccccc1C2=O.O=S(=O)([O-])C(F)(F)F.O=S(=O)([O-])C(F)(F)F", "15.6 µg/mL"],
  ["CC[n+]1nn(CCCCCCn2n[n+](CC)c3c2C(=O)c2ccccc2C3=O)c2c1C(=O)c1ccccc1C2=O.O=S(=O)([O-])C(F)(F)F.O=S(=O)([O-])C(F)(F)F", "> 250 µg/mL"],
  ["CCCCCCCCS(=O)(=O)OC[C@H]1O[C@H](O[C@@H]2[C@@H](O)[C@H](O[C@H]3O[C@H](CN)[C@@H](O)[C@H](O)[C@H]3O)[C@@H](N)C[C@H]2N)[C@H](O)[C@@H](N)[C@@H]1O.Cl.Cl.Cl.Cl", "> 250 µg/mL"]
]}

###

Test system: Cryptococcus neoformans
EXPERIMENT NOTES: Antifungal activity against Cryptococcus neoformans
Assay type: functional

{"columns": ["SMILES REPRESENTATION", "MIC [µg/mL]"],
 "data": [
  ["CCCCCCCC[n+]1nn(CCCCCCn2n[n+](CCCCCCCC)c3c2C(=O)c2ccccc2C3=O)c2c1C(=O)c1ccccc1C2=O.O=S(=O)([O-])C(F)(F)F.O=S(=O)([O-])C(F)(F)F", 3.9],
  ["CCCCCCCCCC[n+]1nn(CCCCCCn2n[n+](CCCCCCCCCC)c3c2C(=O)c2ccccc2C3=O)c2c1C(=O)c1ccccc1C2=O.O=S(=O)([O-])C(F)(F)F.O=S(=O)([O-])C(F)(F)F", 2],
  ["CCCCCCCCS(=O)(=O)OC[C@H]1O[C@H](O[C@@H]2[C@@H](O)[C@H](O[C@H]3O[C@H](CN)[C@@H](O)[C@H](O)[C@H]3O)[C@@H](N)C[C@H]2N)[C@H](O)[C@@H](N)[C@@H]1O.Cl.Cl.Cl.Cl", 7.8],
  ["CCCCCC[n+]1nn(CCCCCCn2n[n+](CCCCCC)c3c2C(=O)c2ccccc2C3=O)c2c1C(=O)c1ccccc1C2=O.O=S(=O)([O-])C(F)(F)F.O=S(=O)([O-])C(F)(F)F", 125],
  ["C[n+]1nn(CCCCCCn2n[n+](C)c3c2C(=O)c2ccccc2C3=O)c2c1C(=O)c1ccccc1C2=O.O=S(=O)([O-])C(F)(F)F.O=S(=O)([O-])C(F)(F)F", 125]
]}

###

System: Staphylococcus aureus
EXPERIMENT NOTES: Antibacterial activity against methicillin-resistant Staphylococcus aureus ATCC 33591
Type: functional
Consider the following compounds and their measured MIC readings.

{"columns": ["COMPOUND", "MIC"],
 "data": [
  ["C[n+]1nn(CCCCCCn2n[n+](C)c3c2C(=O)c2ccccc2C3=O)c2c1C(=O)c1ccccc1C2=O.O=S(=O)([O-])C(F)(F)F.O=S(=O)([O-])C(F)(F)F", "> 250 µg/mL"],
  ["CCCCCC[n+]1nn(CCCCCCn2n[n+](CCCCCC)c3c2C(=O)c2ccccc2C3=O)c2c1C(=O)c1ccccc1C2=O.O=S(=O)([O-])C(F)(F)F.O=S(=O)([O-])C(F)(F)F", "8 to 16 µg/mL"],
  ["NCC[C@H](O)C(=O)N[C@@H]1C[C@H](N)[C@@H](O[C@H]2O[C@H](CN)[C@@H](O)[C@H](O)[C@H]2O)[C@H](O)[C@H]1O[C@H]1O[C@H](CO)[C@@H](O)[C@H](N)[C@H]1O [AMIKACIN]", "16 µg/mL"],
  ["NC[C@H]1O[C@H](O[C@H]2[C@H](O)[C@@H](O[C@H]3O[C@H](CO)[C@@H](O)[C@H](N)[C@H]3O)[C@H](N)C[C@@H]2N)[C@H](O)[C@@H](O)[C@@H]1O [KANAMYCIN]", "125 to 250 µg/mL"],
  ["CN[C@H](CC(C)C)C(=O)N[C@H]1C(=O)N[C@@H](CC(N)=O)C(=O)N[C@H]2C(=O)N[C@H]3C(=O)N[C@H](C(=O)N[C@H](C(=O)O)c4cc(O)cc(O)c4-c4cc3ccc4O)[C@H](O)c3ccc(c(Cl)c3)Oc3cc2cc(c3O[C@@H]2O[C@H](CO)[C@@H](O)[C@H](O)[C@H]2O[C@H]2C[C@](C)(N)[C@H](O)[C@H](C)O2)Oc2ccc(cc2Cl)[C@H]1O [VANCOMYCIN]", "2 to 4 µg/mL"],
  ["CCCCCCCC[n+]1nn(CCCCCCn2n[n+](CCCCCCCC)c3c2C(=O)c2ccccc2C3=O)c2c1C(=O)c1ccccc1C2=O.O=S(=O)([O-])C(F)(F)F.O=S(=O)([O-])C(F)(F)F", "4 to 8 µg/mL"],
  ["CCCCCCCCCC[n+]1nn(CCCCCCn2n[n+](CCCCCCCCCC)c3c2C(=O)c2ccccc2C3=O)c2c1C(=O)c1ccccc1C2=O.O=S(=O)([O-])C(F)(F)F.O=S(=O)([O-])C(F)(F)F", "4 to 8 µg/mL"],
  ["CCCC[n+]1nn(CCCCCCn2n[n+](CCCC)c3c2C(=O)c2ccccc2C3=O)c2c1C(=O)c1ccccc1C2=O.O=S(=O)([O-])C(F)(F)F.O=S(=O)([O-])C(F)(F)F", "> 250 µg/mL"],
  ["CC[n+]1nn(CCCCCCn2n[n+](CC)c3c2C(=O)c2ccccc2C3=O)c2c1C(=O)c1ccccc1C2=O.O=S(=O)([O-])C(F)(F)F.O=S(=O)([O-])C(F)(F)F", "> 250 µg/mL"]
]}

###

System: Candida albicans
EXPERIMENT NOTES: Antifungal activity against azole-susceptible Candida albicans MYA2876
Format: functional
Consider the following compounds and their measured MIC readings.
ASSAY ENDPOINT: MIC (µg/mL)

{"columns": ["SMILES REPRESENTATION", "STUDY TARGET", "READOUT RELATION", "VALUE OBSERVED"],
 "data": [
  ["CCCCCCCC[n+]1nn(CCCCCCn2n[n+](CCCCCCCC)c3c2C(=O)c2ccccc2C3=O)c2c1C(=O)c1ccccc1C2=O.O=S(=O)([O-])C(F)(F)F.O=S(=O)([O-])C(F)(F)F", "Candida albicans", "=", 3.91],
  ["CC[n+]1nn(CCCCCCn2n[n+](CC)c3c2C(=O)c2ccccc2C3=O)c2c1C(=O)c1ccccc1C2=O.O=S(=O)([O-])C(F)(F)F.O=S(=O)([O-])C(F)(F)F", "Candida albicans", ">", 250],
  ["CCCCCCCCS(=O)(=O)OC[C@H]1O[C@H](O[C@@H]2[C@@H](O)[C@H](O[C@H]3O[C@H](CN)[C@@H](O)[C@H](O)[C@H]3O)[C@@H](N)C[C@H]2N)[C@H](O)[C@@H](N)[C@@H]1O.Cl.Cl.Cl.Cl", "Candida albicans", "=", 15.6],
  ["OC(Cn1cncn1)(Cn1cncn1)c1ccc(F)cc1F", "Candida albicans", "=", 1.56],
  ["C[n+]1nn(CCCCCCn2n[n+](C)c3c2C(=O)c2ccccc2C3=O)c2c1C(=O)c1ccccc1C2=O.O=S(=O)([O-])C(F)(F)F.O=S(=O)([O-])C(F)(F)F", "Candida albicans", ">", 250],
  ["CCCCCC[n+]1nn(CCCCCCn2n[n+](CCCCCC)c3c2C(=O)c2ccccc2C3=O)c2c1C(=O)c1ccccc1C2=O.O=S(=O)([O-])C(F)(F)F.O=S(=O)([O-])C(F)(F)F", "Candida albicans", ">", 250],
  ["CCCCCCCCCC[n+]1nn(CCCCCCn2n[n+](CCCCCCCCCC)c3c2C(=O)c2ccccc2C3=O)c2c1C(=O)c1ccccc1C2=O.O=S(=O)([O-])C(F)(F)F.O=S(=O)([O-])C(F)(F)F", "Candida albicans", "=", 3.91],
  ["CCCC[n+]1nn(CCCCCCn2n[n+](CCCC)c3c2C(=O)c2ccccc2C3=O)c2c1C(=O)c1ccccc1C2=O.O=S(=O)([O-])C(F)(F)F.O=S(=O)([O-])C(F)(F)F", "Candida albicans", ">", 250]
]}
